Target: human 5-HT6R (Homo sapiens)
Construct: expressed in transfected cells
Sequence (P50406 whole entry): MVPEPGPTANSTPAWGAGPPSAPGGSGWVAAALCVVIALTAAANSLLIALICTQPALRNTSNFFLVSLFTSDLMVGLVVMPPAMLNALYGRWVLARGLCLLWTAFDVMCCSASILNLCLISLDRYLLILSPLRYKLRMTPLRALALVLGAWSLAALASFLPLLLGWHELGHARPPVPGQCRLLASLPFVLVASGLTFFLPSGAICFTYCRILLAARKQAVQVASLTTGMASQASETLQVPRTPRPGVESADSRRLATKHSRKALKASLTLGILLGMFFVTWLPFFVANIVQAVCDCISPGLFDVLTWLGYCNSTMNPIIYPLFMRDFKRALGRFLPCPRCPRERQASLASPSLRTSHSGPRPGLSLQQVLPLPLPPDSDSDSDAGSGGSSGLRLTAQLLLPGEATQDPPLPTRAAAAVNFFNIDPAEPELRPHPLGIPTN
Experiment: [3H]-LSD radioligand binding assay at 5-HT6R in HEK293 cell membranes
Settings: HEK293 cells with stable expression of human 5-HT6R, mean of at least three experiments (SEM ≤ 18%)
Procedure: The biological evaluation was initiated by assessing the affinity of the compounds for 5-HT6R in the [^3H]-LSD radioligand binding assay. Experiments were performed in a stable HEK293 cell line expressing the human 5-HT6R [10]. […] Experiments were performed in Chinese hamster ovary (CHO) cells with the stable expression of human D3R (Eurofins, Celle-L’Evescault, France). […]
Reported Ki values are given for each entry in this list.
observable: Ki (nM)

- compound: "C[C@H](O)CN1CC[C@H](Nc2nc3ccccc3c3c2ccn3S(=O)(=O)c2cccc(Cl)c2)C1 [Compound 8]"
  test_system: "human 5-HT6R (Homo sapiens)"
  recorded_measurement: 11
- compound: "COCCCN1CC[C@H](Nc2nc3ccccc3c3c2ccn3S(=O)(=O)c2cccc(Cl)c2)C1 [Compound 11]"
  test_system: "human 5-HT6R (Homo sapiens)"
  recorded_measurement: 17
- compound: "O=S(=O)(c1cccc(Cl)c1)n1ccc2c(N[C@H]3CCN(CCO)C3)nc3ccccc3c21 [Compound 10]"
  test_system: "human 5-HT6R (Homo sapiens)"
  recorded_measurement: 84
- compound: "COCCCN1CCC[C@@H]1CNc1nc2ccccc2c2c1ccn2S(=O)(=O)c1cccc(Cl)c1 [Compound 21]"
  test_system: "human 5-HT6R (Homo sapiens)"
  recorded_measurement: 87
- compound: "CCN1CCC[C@@H]1CNc1nc2ccccc2c2c1ccn2S(=O)(=O)c1cccc(Cl)c1.Cl [Compound 13]"
  test_system: "human 5-HT6R (Homo sapiens)"
  recorded_measurement: 27
- compound: "CC(C)CN1CCC[C@@H]1CNc1nc2ccccc2c2c1ccn2S(=O)(=O)c1cccc(Cl)c1.Cl [Compound 17]"
  test_system: "human 5-HT6R (Homo sapiens)"
  recorded_measurement: 27
- compound: "CCN1CCC[C@H]1CNc1nc2ccccc2c2c1ccn2S(=O)(=O)c1cccc(Cl)c1 [Compound 14]"
  test_system: "human 5-HT6R (Homo sapiens)"
  recorded_measurement: 72
- compound: "O=S(=O)(c1cccc(Cl)c1)n1ccc2c(NC[C@H]3CCCN3CCO)nc3ccccc3c21 [Compound 19]"
  test_system: "human 5-HT6R (Homo sapiens)"
  recorded_measurement: 58
